Assay: antivirals protecting cells from dengue CPE – CPE readout, HTS (AID 540333)
Settings: Dengue virus CPE inhibition in host cells, at 20 µM
The whole screen tested about 10,000 compounds, of which about 320 (3.2%) were called active. No stated cut-off is given here; in the data, active means CPE inhibition mostly above about 9.1% (no sharp cut-off); inactive means mostly below about 7.2%. The sample as a whole holds a higher share of actives than the screen did.
Select the correct class. Options are 1 (yes) = active, 0 (no) = inactive and nothing else.

Use these answered entries as a reference point.
> print(dat)
                                   molecule  assigned.category
1  CCCCCCCNC(=O)C1(CC2CC(c3ccccc3)=NO2)CCN(C(=O)OC(C)(C)C)CC1 (stereo not drawn)            1 (yes)
2  CC(C)c1ccccc1NC(=O)COC(=O)c1ccc(Cl)c(S(=O)(=O)N2CCCCCC2)c1             0 (no)
3  CCOC(=O)C(C)(C)N(Cc1ccc(C)cc1)S(=O)(=O)c1ccc(Cl)c([N+](=O)[O-])c1            1 (yes)

Now, please, on to the next molecule.
What is the recorded call for this molecule in the test? Cc1ccc2[nH]c(=O)c(CN(Cc3cccs3)C(=S)NCc3ccco3)cc2c1
0 (no)

----------
Test: antivirals protecting cells from dengue CPE – CPE readout, HTS (AID 540333)
Conditions: Dengue virus CPE inhibition in host cells, at 20 µM; hits give high values
Screen size: about 10,000 compounds; about 320 (3.2%) were called active. The sample as a whole holds a higher share of actives than the screen did.
endpoint_label: CPE inhibition

// below: answered compounds
> print(dat)
                      smiles.representation  endpoint.label             result
1   COc1cc2cc(CCOC(=O)c3ccco3)oc(=O)c2cc1OC  CPE inhibition  0.275% (inactive)
2  Cc1ccc(S(=O)(=O)N2CCCCCC2)cc1[N+](=O)[O-]  CPE inhibition           inactive
3       Cc1ccc(S(=O)(=O)Nc2cccc3c2CCCC3)cc1  CPE inhibition  0.255% (inactive)
4                  CC(=O)CSc1ccc(C(=O)O)cn1  CPE inhibition  0.685% (inactive)

Next item in the queue.
I'd like to know its CPE inhibition. The compound in question is Cc1ccccc1Nc1nc(N)nc(COC(=O)c2ccc(O)cc2)n1
inactive

----------
Experiment: antivirals protecting cells from dengue CPE – CPE readout, HTS (AID 540333)
Settings: Dengue virus CPE inhibition in host cells, at 20 µM
Hit rate of the full screen: of about 10,000 compounds, about 320 (3.2%) were called active. No stated cut-off is given here; in the data, active means CPE inhibition mostly above about 9.1% (no sharp cut-off); inactive means mostly below about 7.2%. This is one part of a sample in which actives are shown more often than they occur.
Give your call using only these classes: active, inactive

Please review the entries below; each comes with its answer.
> print(dat)
                                   molecule  assigned.category
1  O=C(CCC(=O)N1CCN(S(=O)(=O)c2ccc(Cl)cc2)CC1)NCc1ccccc1           inactive
2  COc1ccc(NC(=O)CN2CCC(Cc3ccccc3)CC2)cc1S(=O)(=O)N1CCOCC1           inactive
3  Cc1cccc(-n2c(C)cc(/C=C3\C(=N)N4N=C(CC(C)C)SC4=NC3=O)c2C)c1           inactive
4                  CCc1nc(C#N)c(N2CCOCC2)o1           inactive
5  COC(=O)[C@@]1(Cc2ccc(F)cc2)[C@H]2c3cc(C(=O)N(C)C)n(C[C@H](O)CO)c3C[C@H]2CN1C(=O)c1ccccc1           inactive

What classification did Fc1ccc(NC(=S)N2CCCC2)cc1Cl end up with in this test?
inactive

Please let me know the test result on file for CCOC(=O)c1ccc(-n2c(C)ccc2C)cc1 .
inactive

----------
Assay: antivirals protecting cells from dengue CPE – CPE readout, HTS (AID 540333)
Settings: Dengue virus CPE inhibition in host cells, at 20 µM
Among all 10,000 compounds or so, about 320 (3.2%) were called active. Rule as the data show it: active = CPE inhibition mostly above about 9.1% (no sharp cut-off); inactive = mostly below about 7.2%. The full list was thinned out, with actives kept by preference.
Select the correct class. Options are Yes (active), No (inactive) and nothing else.

> print(dat)
                      smiles.representation  assigned.category
1  CC1CCN(C(=O)CCc2ccc(Oc3cc([N+](=O)[O-])cc([N+](=O)[O-])c3)cc2)CC1                 No
2               CCCCCC(=O)Nc1ccccc1N1CCOCC1                 No

Alright, here's another compound for you.
How was CCCc1cc(=O)[nH]c(SCC(=O)N2CCN(S(=O)(=O)c3ccc4ccccc4c3)CC2)n1 classified in this test?
No

----------
Assay: antivirals protecting cells from dengue CPE – CPE readout, HTS (AID 540333)
Details: Dengue virus CPE inhibition in host cells, at 20 µM
In all, about 10,000 compounds went through this assay and about 320 (3.2%) were called active. Rule as the data show it: active = CPE inhibition mostly above about 9.1% (no sharp cut-off); inactive = mostly below about 7.2%. Only a selection was taken, and actives are over-represented in it overall.
Could you please pick one outcome from this set? active, inactive

Sample answers from the record:
> print(dat)
                                   compound  assigned.category
1  COc1cc(OC)cc(-c2c(C#Cc3ccsc3)c3cc(-c4cccc5[nH]ccc45)ccc3n2C)c1           inactive
2           O=C(CN1CCOCC1)NN=C1CCCCCCCCCCC1           inactive
3  CCOC(=O)[C@H]1[C@H]2COc3ccccc3[C@@H]2N2C(=O)c3ccc(C)cc3NC(=O)[C@@]12C           inactive
4  CCOC(=O)[C@H]1[C@H]2COc3ccc(Cl)cc3[C@@H]2N2C(=O)c3cc(C)ccc3NC(=O)[C@@]12C             active
5         NNC(=O)c1ccc(COc2cccc3ccccc23)cc1           inactive
6  O=C([O-])c1ccc(-[n+]2c(-c3ccccc3)cc(-c3ccccc3)cc2-c2ccccc2)cc1             active

Hi, do you know how CN(C)S(=O)(=O)c1cccc(NC(=O)COC(=O)/C=C/c2ccco2)c1 came out in this test?
inactive

Which result was noted for this compound in the test: COc1ccccc1CNC(=O)C(Cc1c[nH]c2ccccc12)NC(=O)OCc1ccccc1 (stereo not drawn)
inactive

// param item: CSc1sc(C)cc1/C=N/O ; yields the recorded call
inactive

What call does the record list for Oc1c(C=C2N=c3ccccc3=N2)sc(=S)n1-c1ccccc1 ?
inactive

For O=C(NC(=S)N1CCN(c2ccc([N+](=O)[O-])cc2)CC1)c1ccccc1F , what call appears in the results of this test?
inactive

Fill in: this test's call for CCOC(=O)[C@H]1[C@H]2COc3ccc(OC)cc3[C@@H]2N2C(=O)c3ccc(F)cc3NC(=O)[C@@]12C is ___
inactive

----------
Assay: antivirals protecting cells from dengue CPE – CPE readout, HTS (AID 540333)
Conditions: Dengue virus CPE inhibition in host cells, at 20 µM; hits give high values
Out of some 10,000 compounds screened, about 320 (3.2%) were called active. The list comes from a sample in which actives are over-represented; it also holds close analogues and randomly drawn compounds.
endpoint_label: CPE inhibition

Record excerpt, results attached:
> print(dat)
                                   molecule            result
1  CCOc1ccc(N2C(=O)S/C(=C\c3cccn3C)C2=O)cc1          inactive
2  C=CCn1c(SCc2ccc(C(=O)Nc3nccs3)cc2)nnc1-c1ccc(C)c(Cl)c1  0.44% (inactive)
3  CCSc1nc2ccccc2n1C(=O)c1ccc(S(=O)(=O)N2CCCCCC2)cc1  0.17% (inactive)
4  CCOC(=O)c1c(-c2ccc(F)cc2)csc1NC(=O)CCN1C(=O)c2ccccc2C1=O   1.4% (inactive)
5  CCCCN1CC(=O)N2[C@H](c3ccc(OC)cc3)[C@@H]3C(=O)N(CC)C(=O)[C@@H]3[C@]2(C)C1=O          inactive

Could you tell me which CPE inhibition is on file for O=C(/C=C/c1ccc(Cl)cc1Cl)N(Cc1ccccc1)C1CCS(=O)(=O)C1 (stereo not drawn) ?
38.5% (active)

Requested read-out: CPE inhibition. Entry: CC(C)CC(=O)NC1(C(F)(F)F)C(=O)N(CC(C)C)C2=C1C(=O)CC(C)(C)C2 (stereo not drawn)
inactive

----------
Experiment: antivirals protecting cells from dengue CPE – CPE readout, HTS (AID 540333)
Details: Dengue virus CPE inhibition in host cells, at 20 µM
The campaign covered roughly 10,000 compounds. About 320 (3.2%) were called active. Cut-off read from the data, not from the text of the source: active = CPE inhibition mostly above about 9.1% (no sharp cut-off); inactive = mostly below about 7.2%. Shown is part of a subset that was picked to be rich in actives.
Choose one outcome from this list and give only that: 1 = active, 0 = inactive

> print(dat)
                          molecule  assigned.category
1  COc1ccc(Cl)cc1NC(=O)CNc1ccccc1F                  0

Write down the call the test reported for this molecule. Item: O=C(N=Nc1c(O)n(Cc2ccccc2)c2ccccc12)c1ccc(O)cc1
1

Can you look up the reported call for CCn1c(O)c(N=NC(=O)c2ccc(CSc3nncn3C)cc2)c2ccccc21 for me?
0

// outcome(item) with item = CCOC(=O)CCCNC(=O)COC(=O)[C@@H]1CCCN1S(=O)(=O)c1ccc(Cl)cc1
0

Hello, I am checking results. What call was entered for CSCCC(NS(=O)(=O)c1ccc(Cl)cc1)C(=O)OCc1cccc(Cl)c1 (centres undefined) ?
1

How did this test come out for O=S(=O)(/N=C(/Nc1ccccn1)c1ccc(Cl)cc1)c1ccc(Cl)cc1 ?
0

For CCn1c(SCC(=O)N/N=C/c2c[nH]c3ccccc23)nnc1-c1ccc(Cl)cc1 , which call appears in the assay record?
0

Record request — test call for Cc1ccccc1OCCNC(=O)/C=C/c1ccccc1
0

Assay outcome for Cc1ccc(NC(=S)N2CCN(C)CC2)c(C)c1 : what was it?
0

Per the records of this test, what outcome belongs to COc1ccc(C2=NN(C(=O)CSc3nc4ccccc4s3)C(c3ccc(OC)cc3)C2)cc1 (centres undefined) ?
0

Recorded test call requested for CCn1c(SCC(=O)N/N=C/c2ccc(C)o2)nnc1-c1ccc(C(C)(C)C)cc1
0
